Hello, the source for this data is patent US20230203041A1, in case you need it.

Test system: human PBMCs
Assay: CD3/CD28 stimulated IL-2 release NECA reversal assay in human PBMCs;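 note: dose-response as % inhibition where 100% equals no-NECA control wells with CD3/CD28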
Assay type: cell-based
Conditions: PBMC, CD3/CD28 antibody stimulated, 1 uM NECA, 24 hours, IL-2 in culture supernatant
Description: Blood is drawn from healthy volunteers using sodium citrate as the anticoagulant (0.3% final concentration). After centrifugation of the blood over Histopaque-1077, PBMCs are collected from the Histopaque/plasma interface and washed twice in PBS (300 g for 10 mins at room temp). Cells are plated at 50,000 cells/well in 150 μl RPMI/10% FCS in 96-well cell culture plates that have been precoated with 1 ug/ml CD3 antibody. […]
Value Kind: IC50 (µM)
Numbers only, in µM.

{"columns": ["Structure Smiles String", "Result Value"],
 "data": [
  ["Cc1cc(-c2c(-c3cccc(C#N)c3)nn3ccc(N/C(=N\\C#N)NC(C)C)nc23)cc(Cl)n1", 0.009]
]}

Need IC50 for each of these compounds.
1. Cc1cc(-c2c(-c3cccc(C#N)c3)nn3ccc(NCc4nnc[nH]4)nc23)cc(Cl)n1
2. Cc1cc(-c2c(-c3cccc(C#N)c3)nn3ccc(NC(N)=O)nc23)cc(Cl)n1

output:
0.024
0.021

---

Give measured pKi for each item. Keep answers brief.
Biological target: human Adenosine A1 receptor (Homo sapiens, UniProt P30542)
Sequence (P30542 1-326): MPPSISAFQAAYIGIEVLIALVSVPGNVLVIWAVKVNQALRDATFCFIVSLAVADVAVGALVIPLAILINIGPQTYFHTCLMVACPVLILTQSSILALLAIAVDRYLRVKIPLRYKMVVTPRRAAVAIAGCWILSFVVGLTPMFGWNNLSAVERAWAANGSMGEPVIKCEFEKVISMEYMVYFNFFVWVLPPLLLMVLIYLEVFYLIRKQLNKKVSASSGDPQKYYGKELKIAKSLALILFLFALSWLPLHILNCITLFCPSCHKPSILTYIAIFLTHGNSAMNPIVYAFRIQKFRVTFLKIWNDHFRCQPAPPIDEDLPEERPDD
Experiment: Adenosine receptor TR-FRET binding assay (CA200645 displacement), A1
Counter-ions that a name gives are not always drawn.
Numbers only, as −log10 of the molar value.

{"columns": ["Compound", "pKi"],
 "data": [
  ["Cc1cc(-c2c(-c3cccc(C#N)c3)nn3ccc(C(=O)N[C@@H]4CCNC4)nc23)cc(Cl)n1 [Example 7.13, hydrochloride]", 6.80],
  ["Cc1cc(-c2c(-c3cccc(C#N)c3)nn3ccc(C(=O)NCC(C)(C)O)nc23)cc(C)n1 [Example 10]", 6.63],
  ["Cc1cc(-c2c(-c3cccc(C#N)c3)nn3ccc(N[C@H]4C[C@@H](O)C4)nc23)cc(Cl)n1 [Example 2.10]", 6.92],
  ["Cc1cc(-c2c(-c3cccc(C#N)c3)nn3ccc(C(=O)NC45CCC(N)(CC4)C5)nc23)cc(Cl)n1 [Example 6.12]", 6.98],
  ["COc1cc(-c2c(-c3cccc(C#N)c3)nn3ccc(C(=O)NCC(C)(C)O)nc23)cc(C)n1 [Example 12.6]", 6.60]
]}

Need pKi for each of these compounds.
1. N#Cc1c(-c2ccco2)nn2ccc(N3CCN(CCc4ccccc4)CC3)nc12 [Example 37.6]
2. Cc1cc(-c2c(-c3cccc(C#N)c3)nn3ccc(N4CCNCC4)nc23)cc(Cl)n1 [Example 2.29]
3. Cc1cc(-c2c(-c3cccc(C#N)c3)nn3ccc(C(=O)NCC4CNC(=O)C4)nc23)cc(C)n1 (centres unmarked) [Example 92.26]
4. Cc1cc(-c2c(-c3cccc(C#N)c3)nn3ccc(C(=O)NCC(C)(C)O)nc23)cc(C(F)F)n1 [Example 12.4]
5. N#Cc1c(-c2ccco2)nn2ccc(NCCN3CCN(Cc4ccccc4)CC3)nc12 [Example 37.12]

output:
1. 6.44
2. 6.91
3. 6.76
4. 6.83
5. 6.50
